system: CAOV3; assay: Primary qHTS to identify gynecologic anti-cancer compounds using libraries of approved drugs and bioactive compounds (AID 1345084); conditions: Gynecologic cancer cell panel viability, ATPlite luminescence, 48 h; series mostly up to 57.5 µM; further: on the % scale 0 is the no-effect control and ±100 the full control effect; nearly all actives have a fitted effect of over 55% in size
Inconclusive results are not listed. Calls of active or inactive are those of the source. The call rests on the fitted dose curve; in most records, active means well fitted cell-killing curve with a large enough effect; inconclusive means small, poorly fitted or top-dose-only effect, or effect the other way; inactive means flat fitted curve, though single readings scatter. Where a SMILES comes first, the peptide text is derived from it. [ ]: non-standard residue; d: D form. Ala(indol-2-yl) = N[C@@H](Cc1cc2ccccc2[nH]1)C(=O)O; Aib = CC(C)(N)C(=O)O
Let's look at some compounds and their measured activity change, negative = cytotoxicity.

Would you please look over these solved cases?
CC[C@@H]1/C=C/C=C/C[C@H](C)C(O)[C@](C)(O)C(=O)[C@H](C)C(O)[C@H](C)C(=O)[C@H](C)[C@@H](O)[C@H](C)/C=C/C(=O)O[C@H]2[C@@H](C)[C@@H](CC1)O[C@]1(O[C@H](C[C@H](C)O)[C@H](C)CC1=O)[C@@H]2C (some centres undefined); -25.5% [at 11.6 µM] (inactive)
CO[C@H]1C[C@H](O[C@H]2CC[C@@]3(C)C(=CCC4C3CC[C@]3(C)[C@@H](C5=CC(=O)OC5)CC[C@]43O)C2)O[C@@H](C)[C@@H]1O[C@@H]1O[C@H](CO[C@@H]2O[C@H](CO)[C@@H](O)[C@H](O)[C@H]2O)[C@@H](O)[C@H](O)[C@H]1O (some centres undefined); 17.9% [at 11.6 µM] (inactive)
CC(C)(NC(=O)[C@@H](N)Cc1ccc(O)cc1)C(=O)N[C@@H](Cc1cc2ccccc2[nH]1)C(=O)N[C@@H](Cc1ccccc1)C(=O)O (H-Y[Aib][Ala(indol-2-yl)]F-OH); 2.52% [at 11.6 µM] (inactive)

Query: Given the compound C/C=C(\C)C(=O)OC1C2C3(C)CCC(OC4CC(OC)C(OC5OC(C)C(O)C(OC)C5O)C(C)O4)CC3CCC23OC32CCC(C(C)=O)C2(C)C1OC(=O)/C(C)=C/C (centres undefined) , what is its reported activity change, negative = cytotoxicity?
Reply: 0.328% [at 11.6 µM] (inactive)
